# TEST_TARGET: HcPMT1 (Haemonchus contortus);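 further: cytotoxicity IC50 measured in HCT-8 cells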
# Sequence (U5HK46 entry or part of it): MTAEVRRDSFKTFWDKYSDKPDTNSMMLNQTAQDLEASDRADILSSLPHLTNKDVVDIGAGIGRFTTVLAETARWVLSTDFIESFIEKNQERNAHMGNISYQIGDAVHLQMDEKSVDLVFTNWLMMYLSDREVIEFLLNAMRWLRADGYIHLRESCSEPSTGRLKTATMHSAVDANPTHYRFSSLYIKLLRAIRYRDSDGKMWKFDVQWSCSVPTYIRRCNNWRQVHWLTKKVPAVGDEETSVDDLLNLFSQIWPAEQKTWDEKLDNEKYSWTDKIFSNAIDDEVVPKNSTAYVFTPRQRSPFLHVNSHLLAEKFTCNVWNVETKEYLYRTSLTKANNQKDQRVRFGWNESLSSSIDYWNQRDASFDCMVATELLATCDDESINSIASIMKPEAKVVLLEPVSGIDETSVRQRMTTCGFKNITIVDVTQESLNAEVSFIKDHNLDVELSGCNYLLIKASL
# ASSAY_INFO: biochemical
# Type: biochemical
# CONDITION_DETAILS: IC50^Cytotoxicity/IC50^Enzyme
# Procedure: The chemical compounds were obtained from the National Cancer Institute/Developmental Therapeutics Program Open Chemical Repository. […] Detection buffer (100 μL) containing fluorescence substrate was added into each reaction mixture. […] The plates were covered in aluminum foil and incubated at room temperature with agitation for 30 min, followed by reading the fluorescence at 380EX/520EM. […]
Cut-off 4 on Selectivity index (SI) HcPMT1: below means label 1, at or above means label 0.

Is Selectivity index (SI) HcPMT1 of CO[C@H]1/C=C/O[C@@]2(C)Oc3c(C)c(O)c4c(O)c(cc(O)c4c3C2=O)NC(=O)/C(C)=C\C=C\[C@H](C)[C@H](O)[C@@H](C)[C@@H](O)[C@@H](C)[C@H](OC(C)=O)[C@@H]1C [NSC133100] strictly below 4?
label 1

Is 4 strictly greater than the compound's reported Selectivity index (SI) HcPMT1? compound: CO[C@@]12[C@H](COC(N)=O)C3=C(C(=O)C(C)=C(N)C3=O)N1C[C@H]1[C@@H]2N1C (stereo partly shown) [NSC56410]
label 1

Lab note: confirm whether the reported Selectivity index (SI) HcPMT1 for this compound is below 4, equality not counting. compound: CO[C@@H]1/C=C\O[C@]2(C)Oc3c(C)c(O)c4c(O)c(c(CN(C)C)c(O)c4c3C2=O)NC(=O)/C(C)=C\C=C[C@@H](C)[C@@H](O)[C@H](C)[C@@H](O)[C@H](C)[C@H](OC(C)=O)[C@@H]1C [NSC145612]
label 0

Given O=c1c(O)cccc2cc(O)c(O)c(O)c12 [NSC35676, purpurogallin] , is recorded Selectivity index (SI) HcPMT1 strictly lower than 4?
label 0

Hello, is Selectivity index (SI) HcPMT1 of the following compound strictly smaller than 4? COc1cc(C)c2c(c1C=O)Oc1c(c(C)c(O)c3c1C(O)OC3=O)OC2=O (stereo not shown) [NSC87511]
label 1

Bench note: check whether COc1ccc(-c2c(C)c(C(=O)O)nc(-c3ccc4c(O)c(OC)c5c(c4n3)=NC(C)(C)N=5)c2N)c(O)c1OC [NSC62709] shows Selectivity index (SI) HcPMT1 below 4
label 0

###

These records show IC50 for AsPMT (Ascaris suum, UniProt F1L4B9).
Express the result in µM but write the number alone.

Answer with reported IC50 of O=c1c(O)cccc2cc(O)c(O)c(O)c12 [NSC35676, purpurogallin]
12.4

Input CO[C@H]1/C=C/O[C@@]2(C)Oc3c(C)c(O)c4c(O)c(cc(O)c4c3C2=O)NC(=O)/C(C)=C\C=C\[C@H](C)[C@H](O)[C@@H](C)[C@@H](O)[C@@H](C)[C@H](OC(C)=O)[C@@H]1C [NSC133100] , output reported IC50.
34

Annotate the compound CO[C@@]12[C@H](COC(N)=O)C3=C(C(=O)C(C)=C(N)C3=O)N1C[C@H]1[C@@H]2N1C (stereo partly shown) [NSC56410] with its measured IC50.
58.1

Assign IC50 to the following record: CO[C@@H]1/C=C\O[C@]2(C)Oc3c(C)c(O)c4c(O)c(c(CN(C)C)c(O)c4c3C2=O)NC(=O)/C(C)=C\C=C[C@@H](C)[C@@H](O)[C@H](C)[C@@H](O)[C@H](C)[C@H](OC(C)=O)[C@@H]1C [NSC145612]
45.3

Provide IC50 value for the following compound: COc1cc(C)c2c(c1C=O)Oc1c(c(C)c(O)c3c1C(O)OC3=O)OC2=O (stereo not shown) [NSC87511]
177

Please list IC50 recorded for the compound COc1ccc(-c2c(C)c(C(=O)O)nc(-c3ccc4c(O)c(OC)c5c(c4n3)=NC(C)(C)N=5)c2N)c(O)c1OC [NSC62709]
44.3

Name the recorded IC50 of the item CO[C@@H]1/C=C/O[C@@]2(C)Oc3c(C)c(O)c4c(c3C2=O)C(=N[C@@H]2CC[C@@H](O)O[C@H]2C)C=C(NC(=O)/C(C)=C\C(=O)[C@@H]2C[C@@H]2[C@H](O)[C@@H](C)[C@@H](O)[C@@H](C)[C@H](OC(C)=O)[C@@H]1C)C4=O [NSC177383] in your answer.
24.6
